Biological target: Procathepsin L (Homo sapiens, UniProt P07711)
Sequence (P07711 whole entry): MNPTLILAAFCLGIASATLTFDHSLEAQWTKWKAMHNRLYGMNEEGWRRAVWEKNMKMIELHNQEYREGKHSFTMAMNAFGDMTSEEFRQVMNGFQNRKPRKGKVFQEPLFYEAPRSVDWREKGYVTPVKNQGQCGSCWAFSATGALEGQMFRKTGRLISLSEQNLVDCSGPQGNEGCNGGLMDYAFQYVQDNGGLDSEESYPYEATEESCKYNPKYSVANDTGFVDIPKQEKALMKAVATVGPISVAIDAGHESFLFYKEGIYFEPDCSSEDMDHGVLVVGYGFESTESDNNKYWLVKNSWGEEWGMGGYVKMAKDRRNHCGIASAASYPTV
Experiment: Inhibition of cathepsin L
As shown below, each of these compounds has a reported IC50 value.

// below: answered compounds
// query Enter reported IC50 observed with Procathepsin L (Homo sapiens, UniProt P07711) for CCCC[C@@H](C#N)n1cc([C@@](C)(NC(=O)c2ccsc2)C2CCCCC2)nn1
// result > 10 µM

// query // query: CCCC[C@@H](C#N)n1cc([C@@](C)(NC(=O)c2ccccc2)C2CCCCC2)nn1
// result > 10 µM

// query // query: CCCC[C@@H](C#N)n1cc([C@@](C)(NC(=O)c2ccsc2)C2CCC(C)CC2)nn1 (stereo not given in full)
// result > 15 µM

Next:
// query Enter reported IC50 observed with Procathepsin L (Homo sapiens, UniProt P07711) for CCCC[C@@H](C#N)n1cc([C@@](C)(NC(=O)c2ccsc2)C(C)C)nn1
// result > 10 µM

// query // query: CCCC[C@@H](C#N)n1cc([C@@](C)(NC(=O)c2ccccc2)C(C)C)nn1
// result > 10 µM

---

Biological target: Cathepsin S (Homo sapiens, UniProt P25774)
Sequence (P25774 whole entry): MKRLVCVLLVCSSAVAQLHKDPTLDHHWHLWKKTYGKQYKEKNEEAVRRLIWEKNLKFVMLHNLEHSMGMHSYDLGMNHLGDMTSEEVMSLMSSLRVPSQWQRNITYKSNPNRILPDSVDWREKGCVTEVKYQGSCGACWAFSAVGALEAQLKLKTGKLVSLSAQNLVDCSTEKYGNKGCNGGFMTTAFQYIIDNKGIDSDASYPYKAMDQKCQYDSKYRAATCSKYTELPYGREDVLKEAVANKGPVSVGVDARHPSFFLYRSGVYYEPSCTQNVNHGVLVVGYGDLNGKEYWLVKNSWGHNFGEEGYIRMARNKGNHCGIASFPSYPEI
As shown below, each of these compounds has a reported Ki value.

// below: answered compounds
// query Enter reported Ki observed with Cathepsin S (Homo sapiens, UniProt P25774) for CCCC[C@@H](C#N)n1cc([C@@](C)(NC(=O)c2ccsc2)C2CCCCC2)nn1
// result 0.018 µM

// query // query: CCCC[C@@H](C#N)n1cc([C@@](C)(NC(=O)c2ccsc2)C(C)C)nn1
// result 0.42 µM

// query // query: CCCC[C@@H](C#N)n1cc([C@@](C)(NC(=O)c2ccccc2)C2CCCCC2)nn1
// result 0.2 µM

// query // query: CCCC[C@@H](C#N)n1cc([C@@](C)(NC(=O)c2ccsc2)C2CCC(C)CC2)nn1 (stereo not given in full)
// result 0.015 µM

We now examine a further compound.
// query Enter reported Ki observed with Cathepsin S (Homo sapiens, UniProt P25774) for CCCC[C@@H](C#N)n1cc([C@@](C)(NC(=O)c2ccccc2)C(C)C)nn1
// result 1.2 µM

---

Target: Procathepsin L (Homo sapiens)
quantityMeasured: Ki

// query For CCCC[C@@H](C#N)n1cc([C@@](C)(NC(=O)c2ccsc2)C2CCC(C)CC2)nn1 (stereo not given in full) , what is its reported Ki?
// result > 15 µM

// query // query: CCCC[C@@H](C#N)n1cc([C@@](C)(NC(=O)c2ccsc2)C(C)C)nn1
// result > 10 µM

// query // query: CCCC[C@@H](C#N)n1cc([C@@](C)(NC(=O)c2ccsc2)C2CCCCC2)nn1
// result > 10 µM

// query // query: CCCC[C@@H](C#N)n1cc([C@@](C)(NC(=O)c2ccccc2)C(C)C)nn1
// result > 10 µM

Next:
// query For CCCC[C@@H](C#N)n1cc([C@@](C)(NC(=O)c2ccccc2)C2CCCCC2)nn1 , what is its reported Ki?
// result > 10 µM

---

Target: Cathepsin K (Homo sapiens)
Sequence (P43235 whole entry): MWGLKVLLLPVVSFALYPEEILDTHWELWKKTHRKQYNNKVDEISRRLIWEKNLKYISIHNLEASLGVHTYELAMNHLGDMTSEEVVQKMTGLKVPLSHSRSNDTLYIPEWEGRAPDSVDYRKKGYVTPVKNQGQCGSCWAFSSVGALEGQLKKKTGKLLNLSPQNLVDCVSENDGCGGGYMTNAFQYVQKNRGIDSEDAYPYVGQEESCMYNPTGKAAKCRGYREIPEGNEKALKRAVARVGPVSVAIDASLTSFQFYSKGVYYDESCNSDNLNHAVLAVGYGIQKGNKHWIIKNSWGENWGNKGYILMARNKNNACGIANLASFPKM
quantityMeasured: IC50

// query Enter reported IC50 observed with Cathepsin K (Homo sapiens) for CCCC[C@@H](C#N)n1cc([C@@](C)(NC(=O)c2ccsc2)C2CCC(C)CC2)nn1 (some centres not stated)
// result > 15 µM

We now examine a further molecule.
// query Enter reported IC50 observed with Cathepsin K (Homo sapiens) for CCCC[C@@H](C#N)n1cc([C@@](C)(NC(=O)c2ccccc2)C2CCCCC2)nn1
// result > 10 µM

---

Molecular target: Cathepsin B (Homo sapiens)
pKi: −log10 of the molar value.
As shown below, each of these compounds has a reported pKi value.

// below: answered compounds
// query For CCCC[C@@H](C#N)n1cc([C@@](C)(NC(=O)c2ccccc2)C(C)C)nn1 , what is its reported pKi?
// result < 5.00

// query // query: CCCC[C@@H](C#N)n1cc([C@@](C)(NC(=O)c2ccsc2)C(C)C)nn1
// result < 5.00

// query // query: CCCC[C@@H](C#N)n1cc([C@@](C)(NC(=O)c2ccccc2)C2CCCCC2)nn1
// result < 5.00

Next:
// query For CCCC[C@@H](C#N)n1cc([C@@](C)(NC(=O)c2ccsc2)C2CCCCC2)nn1 , what is its reported pKi?
// result < 5.00

---

// endpoint Ki / system Cathepsin K (Homo sapiens)
Return type: number; implicit unit µM.

// below: answered molecules
// query For CCCC[C@@H](C#N)n1cc([C@@](C)(NC(=O)c2ccsc2)C2CCCCC2)nn1 , what is its reported Ki?
// result 1.7

// query // query: CCCC[C@@H](C#N)n1cc([C@@](C)(NC(=O)c2ccccc2)C(C)C)nn1
// result 0.88

We now examine a further molecule.
// query For CCCC[C@@H](C#N)n1cc([C@@](C)(NC(=O)c2ccsc2)C(C)C)nn1 , what is its reported Ki?
// result 0.43

Where do the numbers come from? From ChEMBL document CHEMBL1137397.
